Molecular target: KRas G12S (Homo sapiens, UniProt P01116, G12S)
Sequence (P01116 1-169 isoform P01116-2 G12S): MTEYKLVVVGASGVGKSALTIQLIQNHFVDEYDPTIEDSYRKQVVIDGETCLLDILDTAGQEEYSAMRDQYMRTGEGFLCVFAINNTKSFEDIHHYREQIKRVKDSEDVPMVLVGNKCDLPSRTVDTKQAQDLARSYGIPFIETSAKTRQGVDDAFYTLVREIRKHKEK
Assay type: binding
Details: TR-FRET displacement, read-out: Binding to KRas (IC50 nM) G12S
Measured attribute: IC50 (nM)
// units = nM; emit number, no label

KRas G12S (Homo sapiens, UniProt P01116, G12S) data for C=C1CN2CC(=C)CC2(COc2nc3c(c(N4C[C@@H]5C[C@H](C4)[C@H](O)C5)n2)CCN(c2cc(O)cc4ccc(F)c(CC)c24)C3)C1 ; its IC50: 3

The compound Cc1cc2[nH]ncc2c(N2CCc3c(nc(OCC45CCCN4CCC5)nc3N3CCCC4(CNC(=O)N4)C3)C2)c1C (stereo not drawn) , when measured on KRas G12S (Homo sapiens, UniProt P01116, G12S), yielded IC50 of 23

###

Target: KRas G12D (Homo sapiens, UniProt P01116, G12D)
Sequence (P01116 1-169 isoform P01116-2 G12D): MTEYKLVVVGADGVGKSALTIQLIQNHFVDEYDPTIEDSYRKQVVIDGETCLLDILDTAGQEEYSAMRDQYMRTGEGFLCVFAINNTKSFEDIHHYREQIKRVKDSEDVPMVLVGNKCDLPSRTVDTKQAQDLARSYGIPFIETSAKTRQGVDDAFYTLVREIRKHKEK
Assay: biochemical
Settings: Binding to KRas (IC50 nM) G12D, TR-FRET displacement, KRas G12D
The reader will find reported IC50 values listed item by item below.
State just the number; it will be interpreted in nM.

Oc1cc(Cl)c(C2CC2)c(N2CCc3c(nc(OCC45CCCN4CCC5)nc3N3CCC[C@]4(C3)C[C@@H](O)C4)C2)c1	24
CN1CCC[C@H]1COc1nc2c(c(N3CCCC4(CC(O)C4)C3)n1)CCN(c1cccc3cccc(Cl)c13)C2 (stereo partly drawn)	3120

Okay, now this compound:
Per the records, this compound ( O=C1NCC12CCCN(c1nc(OC[C@@]34CCCN3C[C@H](F)C4)nc3c1CCN(c1cc(O)cc4ccc(F)c(Br)c14)C3)C2 (stereo partly drawn) ) has IC50 equal to 3

###

Molecular target: KRas G12D (Homo sapiens, UniProt P01116, G12D)
Assay: biochemical
Conditions: Binding to KRas (IC50 nM) G12D, TR-FRET displacement, KRas G12D
Reported IC50 by item:

Value of measured IC50 for the entry CCc1c(F)ccc2cc(O)cc(N3CCc4c(nc(OC[C@@]56CCCN5C[C@H](F)C6)nc4N4CCCn5nc(N(C)C(C)=O)cc5C4)C3)c12 : 3 nM

The measured IC50 associated with CCc1c(F)ccc2cc(O)cc(N3CCc4c(nc(OC[C@]56CCCN5[C@H](COC(=O)N(C)C)CC6)nc4N4CCC[C@@](C)(O)C4)C3)c12 reads 2 nM

Record CCc1c(F)ccc2cc(O)cc(N3CCc4c(nc(OC[C@@]56CCCN5C[C@H](F)C6)nc4N4CCCCC(CC(=O)N(C)C)C4)C3)c12 (stereo partly drawn) , field IC50: 6 nM

###

Molecular target: KRas G12A (Homo sapiens, UniProt P01116, G12A)
Sequence (P01116 1-169 isoform P01116-2 G12A): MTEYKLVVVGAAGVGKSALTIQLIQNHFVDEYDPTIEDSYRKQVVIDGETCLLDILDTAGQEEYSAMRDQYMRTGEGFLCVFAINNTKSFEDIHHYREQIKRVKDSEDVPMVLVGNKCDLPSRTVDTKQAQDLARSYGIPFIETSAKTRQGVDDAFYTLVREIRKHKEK
Assay type: binding
Conditions: TR-FRET displacement, read-out: Binding to KRas (IC50 nM) G12A
Measured attribute: IC50
Put down the number, then write its unit next to it.

Cc1cc2[nH]ncc2c(N2CCc3c(nc(OCC45CCCN4CCC5)nc3N3CCCC4(CNS(=O)(=O)N4)C3)C2)c1C (stereo not shown) [Example 452]	9 nM
CC1(O)COCCN(c2nc(OCC34CCCN3CCC4)nc3c2CCN(c2cc(O)cc(Cl)c2C2CC2)C3)C1 (stereo not shown) [Example 436]	11 nM
CCc1cccc2cccc(N3CCc4c(nc(OCC5(CN(C)C)CC5)nc4NC4CN(c5nccn6nc(C)cc56)C4)C3)c12 [Example 699]	8450 nM
CCc1cccc2cccc(N3CCc4c(nc(OCC5(CN(C)C)CC5)nc4N4Cc5cn[nH]c5CC(C)C4)C3)c12 (stereo not shown) [Example 534]	9380 nM
CN(C)C(=O)c1cc2n(n1)CCCN(c1nc(OCC34CCCN3CCC4)nc3c1CCN(c1cc(O)cc(Cl)c1C1CC1)C3)C2 [Example 437]	7 nM

Entry CCc1cccc2cccc(N3CCc4c(nc(OCC5(CN(C)C)CC5)nc4NCc4ccnn4CC(F)F)C3)c12 [Example 683] , IC50 reported as 8280 nM

Item: CCc1cccc2cccc(N3CCc4c(nc(OCC5(CN(C)C)CC5)nc4NCc4c(C)nnn4CC)C3)c12 [Example 518] | IC50: 175 nM

###

Target: KRas G12D (Homo sapiens, UniProt P01116, G12D)
Assay: biochemical
Conditions: Binding to KRas (IC50 nM) G12D, TR-FRET displacement, KRas G12D
Measured attribute: log10(IC50) (log10 of the value in nM)
Recall that a logarithmic scale is used here: each number is log10 of IC50 in nM.

CCc1c(F)ccc2cc(O)cc(N3CCc4c(nc(OCC5(CN(C)C)CC5)nc4N4CCOC(c5n[nH]c(CO)n5)C4)C3)c12 (stereo not shown) [Example 602]	1.64
Cc1cc2[nH]ncc2c(N2CCc3c(nc(OCC45CCCN4CCC5)nc3N3CC4CC(O)C(C4)C3)C2)c1C (stereo not shown) [Example 457]	3.55
CCc1cccc2cccc(N3CCc4c(nc(OCC5(CN(C)C)CC5)nc4N(C)Cc4nnc5c(=O)n(C)ccn45)C3)c12 [Example 700]	3.14
CCc1cccc2cccc(N3CCc4c(nc(OCC5(CN(C)C)CC5)nc4N4CCC(n5cn[nH]c5=O)CC4)C3)c12 [Example 688]	4.57

Data point: CCc1cccc2cccc(N3CCc4c(nc(OCC5(CN(C)C)CC5)nc4N4CCCOC(CCO)C4)C3)c12 (stereo not shown) [Example 515] ; log10(IC50) = 2.47

GET /value?item= C=C1CN2CCCC2(COc2nc3c(c(N4CCCC5(CNS(=O)(=O)N5)C4)n2)CCN(c2cc(O)cc4ccc(F)c(CC)c24)C3)C1 (stereo not shown) [Example 712] &field=log10(IC50) returns 0.48

###

System: A549 cells
Assay: Inhibition of KRas-mediated phosphorylation of ERK (Cisbio HTRF pERK), A549 cells
Format: cell-based
Settings: Homo sapiens, A549, 3 h, 3 hr compound incubation, Cisbio pERK HTRF
Measured attribute: IC50 (nM)
// note: answer is a bare numeric in nM

Consider the following illustrative entries.
CCc1c(F)ccc2cc(O)cc(N3CCc4c(nc(OC[C@@]56CCCN5C[C@H](F)C6)nc4N4CCCC5(CSC5)C4)C3)c12 [Example 421]	322
CCc1c(F)ccc2cc(O)cc(N3CCc4c(nc(OC[C@@]56CCCN5C[C@H](F)C6)nc4N4CCCn5nc(C(=O)NC)c(Cl)c5C4)C3)c12 [Example 388]	9
CCc1c(F)ccc2cc(O)cc(N3CCc4c(nc(OC[C@@]56CCCN5C[C@H](F)C6)nc4N4CCCn5nc(C(=O)N(CC)CC)cc5C4)C3)c12 [Example 390]	5

// sample CCNC(=O)c1nn2c(c1C)CN(c1nc(OC[C@@]34CCCN3C[C@H](F)C4)nc3c1CCN(c1cc(O)cc4ccc(F)c(CC)c14)C3)CCC2 [Example 379] , its IC50 was 17

Record summary for CCc1c(F)ccc2cc(O)cc(N3CCc4c(nc(OC[C@@]56CCCN5C[C@H](F)C6)nc4N4CCCn5nc(C(=O)NC(C)C)c(C)c5C4)C3)c12 [Example 371] : reported IC50 = 9

###

Target: KRas G12A (Homo sapiens, UniProt P01116, G12A)
Format: binding
Details: single point, 10 nM compound, read-out: Binding to KRas (% inhibition at 10 nM) G12A
Measured attribute: inhibition at 0.01 µM

Consider the following illustrative entries.
CCc1c(F)ccc2cc(O)cc(N3CCc4c(nc(OC[C@@]56CCCN5C[C@H](F)C6)nc4N4CCCn5nc(NC(C)C)cc5C4)C3)c12	61%
CCc1c(F)ccc2cc(O)cc(N3CCc4c(nc(OC[C@@]56CCCN5C[C@H](F)C6)nc4N4CCCn5nc(C(=O)N(C)C)c(Br)c5C4)C3)c12	99%
CCc1c(F)ccc2cc(O)cc(N3CCc4c(nc(OC[C@@]56CCCN5C[C@H](F)C6)nc4N4CCCn5nc(C(=O)NC)c(C)c5C4)C3)c12	96%
CCc1c(F)ccc2cc(O)cc(N3CCc4c(nc(OC[C@@]56CCCN5C[C@H](F)C6)nc4N4CCCn5nc(C(=O)N(C)CCOCCOC)cc5C4)C3)c12	96%
CCc1c(F)ccc2cc(O)cc(N3CCc4c(nc(OC[C@@]56CCCN5C[C@H](F)C6)nc4N4CCCn5nnc(Cl)c5C4)C3)c12	81%
CCc1c(F)ccc2cc(O)cc(N3CCc4c(nc(OC[C@@]56CCCN5C[C@H](F)C6)nc4N4CCCn5nc(NC)c(C)c5C4)C3)c12	54%

// sample CCc1c(F)ccc2cc(O)cc(N3CCc4c(nc(OC[C@@]56CCCN5C[C@H](F)C6)nc4N4Cc5cn(C(=O)N(C)C)nc5CC(C)C4)C3)c12 (stereo partly drawn) , its inhibition at 0.01 µM was 55%

Just so you know, measured inhibition at 0.01 µM for CCc1c(F)ccc2cc(O)cc(N3CCc4c(nc(OC[C@@]56CCCN5C[C@H](F)C6)nc4N4CCCOCC4)C3)c12 came out at 96%

The compound identified as CCc1c(F)ccc2cc(O)cc(N3CCc4c(nc(OC[C@@]56CCCN5C[C@H](F)C6)nc4N4CCCn5nc6c(c5C4)CCCN(C)C6=O)C3)c12 registered its inhibition at 0.01 µM at 100%

Briefly, inhibition at 0.01 µM measured for CCc1c(F)ccc2cc(O)cc(N3CCc4c(nc(OC[C@@]56CCCN5C[C@H](F)C6)nc4N4CCCn5nc(C(=O)N6CCN(C)CC6)cc5C4)C3)c12 : 98%

// inhibition at 0.01 µM lookup, compound = CCc1c(F)ccc2cc(O)cc(N3CCc4c(nc(OC[C@@]56CCCN5C[C@H](F)C6)nc4N4CCCCn5nc(C(=O)N(C)C)cc5C4)C3)c12 , result: 96%

Item: CCc1c(F)ccc2cc(O)cc(N3CCc4c(nc(OC[C@@]56CCCN5C[C@H](F)C6)nc4N4CCCn5nc(C(=O)NC)c(Cl)c5C4)C3)c12 | inhibition at 0.01 µM: 94%
